Hey, just so you know, these numbers are from PubChem BioAssay AID488890.

Assay: growth inhibition of non-replicating M. tuberculosis (AID 488890);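 note: plate controls were DMSO cells for no effect and high antibiotic wells for full effect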
Conditions: Mycobacterium tuberculosis non-replicating, at 25 µM, stronger effect = higher value
Hit rate of the full screen: of about 320,000 compounds, about 1,300 (0.41%) were called active. Another 3% or so got no clear call; they are omitted. Only a sample is shown. Entries with a potency or affinity are not part of this list.
Readout Label: inhibition (%)
Numbers only, in %.

Use these answered entries as a reference point.
Compound | Observed Measurement
COC(=O)/C(=C/c1c[nH]c2ccccc12)[N+](=O)[O-] | 9.02
Clc1ccc(Cl)c(-c2nc(-c3ccncc3)no2)c1 | -30.7
CCS(=O)(=O)N1CCC(NC(=O)C2CCCCC2)CC1 | -9.82
O=C1NCCN/C1=C\C(=O)c1cccc(Br)c1 | -1.75
Nc1c(C(=O)Nc2ccc3c(c2)OCCO3)nnn1Cc1cccc(Br)c1 | 1.42

Please turn your attention to the following entry.
[ask] Name the recorded inhibition for CCCOc1ccc(N2CC(C(=O)NC(C)C)CC2=O)cc1 (stereo unspecified) .
[reply] -9.57

====

Assay: growth inhibition of non-replicating M. tuberculosis (AID 488890);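 note: plate controls were DMSO cells for no effect and high antibiotic wells for full effect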
Settings: Mycobacterium tuberculosis non-replicating, at 25 µM, stronger effect = higher value
Out of some 320,000 compounds screened, about 1,300 (0.41%) were called active. About 3% were inconclusive and are not listed. Only a sample is shown. Measured potencies and affinities stand elsewhere.
Task for the reader: assign each of the following compounds its reported inhibition.
The reply should consist of the numeric value with the unit placed after it.

Example results:
Compound | inhibition
CN1CCN(c2nc3c(c(=O)[nH]c(=O)n3C)n2Cc2ccccc2F)CC1 | -2.87%
COC(=O)C1=C(C)N(Cc2ccccc2)C(=NCc2ccc(OC)cc2)N[C@H]1c1cccc(F)c1 | 79.1%
Cc1ccsc1C(=O)C1CCCN(Cc2sc(N(C)C)nc2Cl)C1 (stereo unspecified) | -9.22%

Report inhibition for every entry below.
1. CN(c1ccccc1C(=O)O)S(C)(=O)=O
2. CN(C)S(=O)(=O)c1ccc(C(=O)OCCc2ccccc2)cc1
3. CCN1CCCC1CNC(=S)Nc1ccc(C(C)=O)cc1 (stereo unspecified)

[reply]
1: -5.19%; 2: 42.9%; 3: 16.8%

====

Test: growth inhibition of non-replicating M. tuberculosis (AID 488890);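 note: plate controls were DMSO cells for no effect and high antibiotic wells for full effect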
Details: Mycobacterium tuberculosis non-replicating, at 25 µM, stronger effect = higher value
Out of some 320,000 compounds screened, about 1,300 (0.41%) were called active. Not shown: some 3% with an inconclusive outcome. Only a sample is shown. Entries with a potency or affinity are not part of this list.
Provide the reported inhibition of each item.
Numbers only, in %.

Example cases with answers are listed next.
Smiles Text | Unit Info | Observed Measurement
CNC(=O)COC(=O)c1cc(F)c(F)cc1Cl | % | 19.5
O=C(N/N=C/c1ccncc1)c1sc2ccccc2c1Cl | % | 67.1
COc1ccc(-n2nc3c(c2NC(=O)c2ccco2)CS(=O)(=O)C3)cc1 | % | 3.65

Could I get inhibition for every one of these entries?
1. CC(C)(C)NC(=O)COC(=O)c1cc(Br)ccc1Cl
2. O=C(NC1CCCC1)c1nc2c(nnn2Cc2ccccc2Cl)c(=O)[nH]1
3. O=C(NC1CC1)c1nc2c(nnn2Cc2ccccc2Cl)c(=O)[nH]1

[reply]
1. 63.1
2. 79.4
3. 17.4
